Values from paper PMC9005681

# assayed_target: cloned human or rodent CNS receptors, channels, and transporters (PDSP panel) (Homo sapiens)
# Construct: expressed in transfected cells
# Sequence (P35462 whole entry): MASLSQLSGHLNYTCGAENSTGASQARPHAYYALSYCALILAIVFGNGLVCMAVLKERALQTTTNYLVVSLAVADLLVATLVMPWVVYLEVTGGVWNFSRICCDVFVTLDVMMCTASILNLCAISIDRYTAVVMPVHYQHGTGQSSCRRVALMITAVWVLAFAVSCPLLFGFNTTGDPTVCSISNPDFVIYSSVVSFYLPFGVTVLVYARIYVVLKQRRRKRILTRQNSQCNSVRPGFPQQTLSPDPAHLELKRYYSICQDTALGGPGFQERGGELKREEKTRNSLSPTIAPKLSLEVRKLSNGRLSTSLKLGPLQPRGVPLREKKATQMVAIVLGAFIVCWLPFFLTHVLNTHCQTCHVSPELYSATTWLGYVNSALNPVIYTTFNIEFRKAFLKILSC
# experiment: PDSP GPCR panel primary binding assays at 10 μM
# conditions_used: D3; primary assay, replicate 4
# Experimental: GPCR panel: Screening against the receptors within the PDSP panel offers an assessment of off-target pharmacological activity at cloned human or rodent CNS receptors, channels, and transporters that could confound CNS-related phenotypes. A total of 46–47 primary binding assays were run in quadruplicate on these compounds at 10 μM, with follow-up secondary binding assays in 11-point dose-response in triplicate for select compounds versus select receptors. […]
Response key: YES means Inhibition 4 >= -20%; NO means Inhibition 4 < -20%.

{"columns": ["molecule", "label"],
 "data": [
  ["O=C(NC1CC1)C(=O)C(Cc1ccccc1)NC(=O)[C@H]1CCC(=O)N1Cc1ccccc1 (some centres unmarked) [UNC10302676A, ABT-957 (Alicapistat)]", "YES"],
  ["CC(=O)N1CCC(NC(=O)NC23CC4CC(CC(C4)C2)C3)CC1 [UNC10302683A, AR9281]", "NO"],
  ["CCC(=O)N1CCC(NC(=O)Nc2ccc(OC(F)(F)F)cc2)CC1 [UNC10302681A, TPPU]", "YES"],
  ["CNc1nc(C)nc(N[C@H]2CCC[C@@H](C(=O)NCc3ccc(C#N)cc3C(F)(F)F)C2)n1 [UNC10302679A, GSK2256294A]", "YES"]
]}
